The origin of these recorded values is patent US9505786B2.

Here we list molecules with their recorded IC50 when tested on human phosphodiesterase 5 (PDE 5) (Homo sapiens (Human)).
attribute measured: IC50 (nM)

• C=CCCC1(C)C(=O)Nc2nc(-c3nn(Cc4ccccc4F)c4ncccc34)nnc21 (racemic) = 140
• O=C1Nc2nc(-c3nn(Cc4ccccc4F)c4ncccc34)ncc2C1(O)C(F)(F)C(F)(F)F (stereo not shown) = 2400
• CC1(C)C(=O)Nc2nc(-c3nn(Cc4ccccc4F)c4ncccc34)nc(CNS(C)(=O)=O)c21 = 48
• CCC1(C)C(=O)Nc2nc(-c3nn(Cc4ccccc4F)c4ncc(F)cc34)nnc21 (racemic) [Example 7] = 340
• C=CCC1(C)C(=O)Nc2nc(-c3nn(Cc4ccccc4F)c4ncccc34)nnc21 (racemic) = 310
• CCOC(=O)C1(C)C(=O)Nc2nc(-c3nn(Cc4ccccc4F)c4ncccc34)ncc21 (racemic) = 870
• Cc1ncc(-c2nc(-c3nn(Cc4ccccc4F)c4ncccc34)nc3c2C(C)(C)C(=O)N3)s1 = 120
